Where these numbers come from: patent US12649727B2

target.under.test: Ba/F3 EGFR-D770-N771ins_SVD (Homo sapiens, UniProt P00533, DUP768-770, cells depend on it)
Sequence (P00533 with tags, fused parts or gaps DUP768-770): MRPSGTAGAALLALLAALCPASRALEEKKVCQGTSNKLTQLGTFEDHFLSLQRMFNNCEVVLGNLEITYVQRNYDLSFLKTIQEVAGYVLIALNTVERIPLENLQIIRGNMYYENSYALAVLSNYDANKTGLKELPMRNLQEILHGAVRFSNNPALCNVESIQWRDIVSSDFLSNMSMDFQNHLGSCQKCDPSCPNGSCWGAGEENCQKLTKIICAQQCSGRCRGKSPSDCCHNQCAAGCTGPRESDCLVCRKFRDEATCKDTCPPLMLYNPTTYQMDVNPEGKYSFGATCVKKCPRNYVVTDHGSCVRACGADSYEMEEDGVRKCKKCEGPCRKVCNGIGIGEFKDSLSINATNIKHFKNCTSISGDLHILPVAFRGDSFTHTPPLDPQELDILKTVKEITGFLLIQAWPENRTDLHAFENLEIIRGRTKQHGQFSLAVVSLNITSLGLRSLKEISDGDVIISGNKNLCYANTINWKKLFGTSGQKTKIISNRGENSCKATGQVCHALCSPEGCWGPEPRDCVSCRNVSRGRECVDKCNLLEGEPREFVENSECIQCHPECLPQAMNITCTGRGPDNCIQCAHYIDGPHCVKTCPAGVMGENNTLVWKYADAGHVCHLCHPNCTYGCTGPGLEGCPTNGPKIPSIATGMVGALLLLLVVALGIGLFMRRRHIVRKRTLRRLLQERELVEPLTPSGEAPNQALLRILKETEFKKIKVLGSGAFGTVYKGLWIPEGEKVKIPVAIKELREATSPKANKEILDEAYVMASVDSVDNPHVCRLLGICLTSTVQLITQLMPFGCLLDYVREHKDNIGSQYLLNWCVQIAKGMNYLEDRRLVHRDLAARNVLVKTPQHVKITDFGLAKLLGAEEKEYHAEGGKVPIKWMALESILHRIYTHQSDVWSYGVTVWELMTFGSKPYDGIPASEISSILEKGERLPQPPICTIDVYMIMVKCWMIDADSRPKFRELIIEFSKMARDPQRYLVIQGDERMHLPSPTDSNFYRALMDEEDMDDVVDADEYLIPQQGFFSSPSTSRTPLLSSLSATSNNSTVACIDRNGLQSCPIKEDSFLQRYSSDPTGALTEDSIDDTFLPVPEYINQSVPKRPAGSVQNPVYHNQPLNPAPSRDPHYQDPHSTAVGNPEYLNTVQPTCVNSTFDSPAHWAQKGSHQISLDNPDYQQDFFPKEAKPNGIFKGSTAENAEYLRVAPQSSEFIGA
measurement.description: Proliferation experiment of Ba/F3 cell line, EGFR-D770-N771ins_SVD (CellTiter-Glo)
Type: cell-based
reported.conditions: cultured for 72 hrs with compound, CTG analysis, read-out: Ba/F3 EGFR-D770-N771ins_SVD IC50
reported.metric: GI50 (nM)

C=CC(=O)Nc1cc2c(Nc3cccc(-n4nccn4)c3)ncnc2cc1OCCCN1CCN(C)CC1 : 11.4
C=CC(=O)Nc1cc2c(Nc3ccnc(-c4ccccc4F)c3)ncnc2cc1O[C@@H]1CCN(CC)C1 : 2.9

[P] C=CC(=O)Nc1cc2c(Nc3cccc(-c4c(F)cccc4F)c3)ncnc2cc1OCCN1CCOCC1
[Q] C=CC(=O)Nc1cc2c(Nc3ccnc(-c4ccccc4F)c3)ncnc2cc1OCCCN1CCN(CCO)CC1
[R] C=CC(=O)Nc1cc2c(Nc3cccc(-c4ncccc4F)c3)ncnc2cc1OCCCN1CCN(C)CC1
Q. Arrange by GI50, high to low. Form entry: ranked labels (order as requested).
A. P, R, Q
